These entries and their values trace back to patent US20230295324A1.

TARGET SYSTEM: T1, human OX40 on cells (CHO-K1/hu OX40) (human, UniProt P43489 29-277)
T1 sequence (looked up): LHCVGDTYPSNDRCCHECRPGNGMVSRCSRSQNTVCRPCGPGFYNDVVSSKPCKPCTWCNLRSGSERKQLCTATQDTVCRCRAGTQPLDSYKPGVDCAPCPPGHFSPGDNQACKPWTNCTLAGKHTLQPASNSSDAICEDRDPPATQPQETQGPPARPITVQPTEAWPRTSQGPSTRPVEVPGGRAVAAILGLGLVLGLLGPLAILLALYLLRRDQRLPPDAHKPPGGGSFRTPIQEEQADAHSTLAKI
EXPERIMENT: cell-based or functional assay
OUTCOME MEASURE: Maximum fluorescence signal value, HEK293/OX40/NF-kb luciferase reporter (luminescence)
Unit luminescence implied. Number only.

BINDER: PR002077 (antibody, human IgG1, V domains shown, no light chain; also called anti-OX40 HCAb antibody) VH: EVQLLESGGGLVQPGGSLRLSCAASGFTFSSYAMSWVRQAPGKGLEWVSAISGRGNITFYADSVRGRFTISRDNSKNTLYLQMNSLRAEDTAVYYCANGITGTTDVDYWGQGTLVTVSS
MEASURED: 113000

# evaluate next
Req: Quickly give me recorded Maximum fluorescence signal value, HEK293/OX40/NF-kb luciferase reporter for PR002074 (antibody, human IgG1, V domains shown, no light chain; also called anti-OX40 HCAb antibody) VH: EVQLLESGGGLVQPGGSLRLSCAASGFTFSSYAMSWVRQAPGKGLEWVSGISGGGNNTFYADSVRGRFTISRDNSKNTLYLQMNSLRAEDTAVYYCMRGWELPLLENWGQGTLVTVSS
Resp: 84800
